# TARGET OF ASSAY: Gal(b1-4)GalNAc(b1-3)[Fuc(a1-2)]Gal(b1-4)GlcNAc
# PROCEDURE TEXT: glycan array binding signal (z-score within array); higher = stronger binding
# EXPERIMENTAL PARAMETERS: glycan notation: IUPAC condensed, linker removed
The full list was thinned out, with the strongest signals kept by preference.
TEST READOUT: glycan array binding signal (z-score)

* MPA (Maclura pomifera) (protein) GVTFDDGAYTGIREINFEYNSETAIGGLRVTYDLNGMPFVAEDHKSFITGFKPVKISLEFPSEYIVEVSGYVGKVEGYTVIRSLTFKTNKQTYGPYGVTNGTPFSLPIENGLIVGFKGSIGYWLDYFSIYLSLNGPNGKSQSIIVGPWGDRVTN | -0.249
* Tim-4 (Mus musculus), Q6U7R4 (protein) MSKGLLLLWLVTELWWLYLTPAASEDTIIGFLGQPVTLPCHYLSWSQSRNSMCWGKGSCPNSKCNAELLRTDGTRIISRKSTKYTLLGKVQFGEVSLTISNTNRGDSGVYCCRIEVPGWFNDVKKNVRLELRRATTTKKPTTTTRPTTTPYVTTTTPELLPTTVMTTSVLPTTTPPQTLATTAFSTAVTTCPSTTPGSFSQETTKGSAFTTESETLPASNHSQRSMMTISTDIAVLRPTGSNPGILPSTSQLTTQKTTLTTSESLQKTTKSHQINSRQTILIIACCVGFVLMVLLFLAFLLRGKVTGANCLQRHKRPDNTEDSDSVLNDMSHGRDDEDGIFTL | -0.661
* MLTim-4 (Mus musculus), Q6U7R4 (protein) MSKGLLLLWLVTELWWLYLTPAASEDTIIGFLGQPVTLPCHYLSWSQSRNSMCWGKGSCPNSKCNAELLRTDGTRIISRKSTKYTLLGKVQFGEVSLTISNTNRGDSGVYCCRIEVPGWFNDVKKNVRLELRRAT | -0.991
